Assign half-life at 1 μM to each entry below.
# method: Stability assay in rabbit aqueous humor
# Assay type: in vitro ADME
# measurement setup: 1 μM compound in rabbit aqueous humor, LC-MS/MS; read-out: t½ AH
Counter-ions that a name gives are not always drawn.

Fill in the blank: the reported half-life at 1 μM of CCCOC(=O)c1cccc(C(=O)Nc2cccc(CNC3CCC(Nc4cccc5cnccc45)CC3)c2)c1 (stereo not shown) [Compound 27] is ____.
> 2 h

Which half-life at 1 μM reading was recorded for the compound COC(=O)c1cccc(C(=O)Nc2cc(CN3CCCC(Nc4ccc5[nH]ncc5c4)C3)ccc2C)c1 (stereo not shown) [Compound 3, dihydrochloride] ?
> 2 h

Please look up its half-life at 1 μM: COCCOC(=O)c1cccc(C(=O)Nc2cccc(CN3CCC(Nc4cccc5cnccc45)CC3)c2)c1 [Compound 34]
> 2 h

Reported half-life at 1 μM, compound O=C(Nc1cccc(CN2CCC(Nc3cccc4cnccc34)CC2)c1)c1cccc(C(=O)OCC2CCCO2)c1 (stereo not shown) [Compound 35] : ____
> 2 h

Which value of half-life at 1 μM has been reported for COCCOC(=O)c1cccc(C(=O)Nc2cccc(CNC3CCC(Nc4cccc5cnccc45)CC3)c2)c1 (stereo not shown) [Compound 28] in the records?
> 2 h

Entry O=C(Nc1cccc(CNC2CCC(Nc3cccc4cnccc34)CC2)c1)c1cccc(C(=O)OCC2CCCO2)c1 (stereo not shown) [Compound 29] : reported half-life at 1 μM = ?
> 2 h

Field request: half-life at 1 μM | item: COC(=O)c1cccc(C(=O)Nc2cccc(CN3CCC(Nc4cccc5cnccc45)C3)c2)c1 (stereo not shown) [Compound 1]
> 2 h

Which half-life at 1 μM is reported for this compound? COCCOC(=O)c1cccc(C(=O)Nc2cccc(CN3CCC(Nc4cccc5cnccc45)C3)c2)c1 (stereo not shown) [Compound 22]
> 2 h

Provide half-life at 1 μM for all items below, preserving their order.
1. COC(=O)c1cccc(C(=O)Nc2cc(CN3CCC(Nc4cccc5cnccc45)C3)ccc2C)c1 (stereo not shown) [Compound 7]
2. CCCOC(=O)c1cccc(C(=O)Nc2cccc(CN3CCC(Nc4cccc5cnccc45)C3)c2)c1 (stereo not shown) [Compound 21]
3. CCCOC(=O)c1cccc(C(=O)Nc2cccc(CN3CCC(Nc4cccc5cnccc45)CC3)c2)c1 [Compound 33]
4. COC(=O)c1ccc(C(=O)Nc2cc(CN3CCCC(Nc4ccc5[nH]ncc5c4)C3)ccc2C)cc1 (stereo not shown) [Compound 15]
5. O=C(Nc1cccc(CN2CCC(Nc3cccc4cnccc34)C2)c1)c1cccc(C(=O)OCC2CCCO2)c1 (stereo not shown) [Compound 23]

1. > 2 h
2. 2 h
3. > 2 h
4. > 2 h
5. 1.28 h

----------
The compounds below have reported IC50 for ROCK2 (Homo sapiens).

Solved cases below.
Looking for the measured IC50 of COC(=O)c1ccc(C(=O)Nc2cccc(CNC3CCC(Nc4cccc5cnccc45)CC3)c2)cc1 (stereo not shown) [Compound 17] , can you help?
< 100 nM

I have this compound here, O=C(Nc1cccc(CNC2CCC(Nc3cccc4cnccc34)CC2)c1)c1cccc(C(=O)OCC2CCCO2)c1 (stereo not shown) [Compound 29] , and I need its recorded IC50.
< 100 nM

Please report the recorded IC50 for O=C(Nc1cccc(CNC2CCC(Nc3cccc4cnccc34)CC2)c1)c1ccc(C(=O)OCC2CCCO2)cc1 (stereo not shown) [Compound 32] .
< 100 nM

Report IC50 for every entry below.
1. CCCOC(=O)c1ccc(C(=O)Nc2cccc(CNC3CCC(Nc4cccc5cnccc45)CC3)c2)cc1 (stereo not shown) [Compound 30]
2. CCCOC(=O)c1ccc(C(=O)Nc2cccc(CN3CCC(Nc4cccc5cnccc45)CC3)c2)cc1 [Compound 36]
3. COC(=O)c1cccc(C(=O)Nc2cccc(CN3CCC(Nc4cccc5cnccc45)CC3)c2)c1 [Compound 18]
4. COCCOC(=O)c1cccc(C(=O)Nc2cccc(CN3CCC(Nc4cccc5cnccc45)CC3)c2)c1 [Compound 34]

1. < 100 nM
2. < 100 nM
3. < 100 nM
4. < 100 nM
